# target: GluN2C-containing receptors (Rattus norvegicus, UniProt Q00961)
# Construct: expressed in transfected cells; host or cells: Xenopus laevis oocytes
# methodNotes: Two-electrode voltage-clamp inhibition of GluN2C-containing NMDA receptors in Xenopus laevis oocytes
# Format: cell-based
So I've got a bunch of compounds here, and I need their IC50 values.
Give a bare numeral; the unit nM is implied.

For this compound ( O=C(O)CCCN1N=C(c2c(-c3ccc(Cl)cc3)c3ccccc3[nH]c2=O)CC1c1ccc(Cl)cc1 (centres unmarked) [Compound 997-63] ), measured IC50 is 3000

Sure, the documented IC50 for O=C(O)CCC(=O)N1N=C(c2c(-c3ccc(Br)cc3)c3ccccc3[nH]c2=O)CC1c1ccc(Br)cc1 (centres unmarked) [Compound 997-7] is 710

====

# target: H2 (Homo sapiens)
# Sequence (P25021 whole entry): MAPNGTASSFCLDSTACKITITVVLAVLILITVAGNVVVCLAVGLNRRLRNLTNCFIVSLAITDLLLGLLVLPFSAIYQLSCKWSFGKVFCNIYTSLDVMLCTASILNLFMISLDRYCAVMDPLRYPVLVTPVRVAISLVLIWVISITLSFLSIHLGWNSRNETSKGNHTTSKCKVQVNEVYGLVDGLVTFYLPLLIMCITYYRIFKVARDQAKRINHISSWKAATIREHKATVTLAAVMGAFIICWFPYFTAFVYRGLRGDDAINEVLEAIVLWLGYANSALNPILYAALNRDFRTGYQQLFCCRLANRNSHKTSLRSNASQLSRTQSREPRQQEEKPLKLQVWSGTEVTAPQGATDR
measuredEndpoint: Ki

For record O=C(O)CCC(=O)N1N=C(c2c(-c3ccc(Cl)cc3)c3ccccc3[nH]c2=O)CC1c1ccc(Cl)cc1 (racemic) [Compound 997-23] the listed Ki is > 10 µM

====

# target: 5-HT6 (Homo sapiens)
# Construct: NIMH PDSP (screening programme)
# Sequence (P50406 whole entry, species assumed): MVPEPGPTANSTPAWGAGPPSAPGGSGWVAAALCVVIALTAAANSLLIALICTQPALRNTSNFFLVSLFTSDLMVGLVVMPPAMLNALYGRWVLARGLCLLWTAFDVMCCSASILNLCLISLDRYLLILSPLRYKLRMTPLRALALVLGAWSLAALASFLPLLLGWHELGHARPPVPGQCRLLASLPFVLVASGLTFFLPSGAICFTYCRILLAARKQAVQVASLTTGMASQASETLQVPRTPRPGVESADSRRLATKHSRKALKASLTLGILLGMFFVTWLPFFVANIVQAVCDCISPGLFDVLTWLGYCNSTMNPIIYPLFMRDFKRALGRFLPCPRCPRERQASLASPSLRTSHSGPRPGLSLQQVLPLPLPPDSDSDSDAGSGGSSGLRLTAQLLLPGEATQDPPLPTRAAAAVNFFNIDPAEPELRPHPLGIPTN
# methodNotes: NIMH PDSP Ki determination, 5-HT6
# Type: binding
pKi: −log10 of the molar value.
measuredEndpoint: pKi

O=C(O)CCC(=O)N1N=C(c2c(-c3ccc(Cl)cc3)c3ccccc3[nH]c2=O)CC1c1ccc(Cl)cc1 (racemic) tested on 5-HT6 (Homo sapiens) gave pKi: < 5.00

====

I'd appreciate it if you could supply solubility values for the items below.
# methodNotes: Aqueous solubility in oocyte recording buffer by nephelometry
# Assay type: physicochemical

The compound identified as O=C(O)CCC(=O)N1N=C(c2c(-c3ccc(Cl)cc3)c3ccccc3[nH]c2=O)CC1c1ccc(Cl)cc1 (racemic) registered its solubility at > 80 µM

Noted for O=C(O)/C=C/C(=O)N1N=C(c2c(-c3ccc(Br)cc3)c3ccccc3[nH]c2=O)CC1c1ccc(Cl)cc1 (racemic) : its solubility reads > 80 µM

====

pKi: −log10 of the molar value.
measuredEndpoint: pKi

// returns pKi for O=C(O)CCC(=O)N1N=C(c2c(-c3ccc(Cl)cc3)c3ccccc3[nH]c2=O)CC1c1ccc(Cl)cc1 (racemic) [Compound 997-23] with kappa-opioid (Homo sapiens, UniProt P41145); value = < 5.00

====

Assignment: determine reported pIC50 for the given molecules.
# target: GluN2D-containing receptors (Rattus norvegicus, UniProt P35439+Q62645)
# Construct: expressed in transfected cells; host or cells: Xenopus laevis oocytes
# methodNotes: Two-electrode voltage-clamp inhibition of GluN2D-containing NMDA receptors in Xenopus laevis oocytes
# Format: cell-based
# testSettings: GluN2D-containing receptors
# Protocol: IC50 values were obtained by fitting the Hill equation to the average composite concentration-effect curves. Xenopus laevis oocytes were isolated and maintained as described in Hansen & Traynelis, J Neurosci 2011, 31, 3650-3661. Oocytes were placed in a perfusion chamber with recording solution comprised of (in mM) 90 NaCl, 1 KCl, 0.5 BaCl2, 0.005 EDTA and 10 HEPES, pH adjusted to 7.4 with NaOH at 23° C. The glass electrodes used had tip resistance of 0.5-2.0 MΩ and were filled with 0.3-3.0 M KCl. […]
// scale note: pIC50 = -log10(conc_M); give the bare number

Item: O=C(CC(F)(F)CO)N1N=C(c2c(-c3ccc(Cl)cc3)c3ccccc3[nH]c2=O)CC1c1ccc(Cl)cc1 (stereo not drawn) | System: GluN2D-containing receptors (Rattus norvegicus, UniProt P35439+Q62645) | pIC50: 6.10

Summary line: O=C(CC(F)(F)C(=O)O)N1N=C(c2c(-c3cccc(F)c3)c3ccccc3[nH]c2=O)CC1c1ccc(Cl)cc1 (stereo not drawn) , GluN2D-containing receptors (Rattus norvegicus, UniProt P35439+Q62645), reported pIC50 = 6.30

Item `O=C(CC(F)(F)CO)N1N=C(c2c(-c3ccc(Cl)cc3)c3ccccc3[nH]c2=O)C[C@H]1c1ccc(Cl)cc1` ; assay system GluN2D-containing receptors (Rattus norvegicus, UniProt P35439+Q62645); pIC50 reported as 6.22

Known value: GluN2D-containing receptors (Rattus norvegicus, UniProt P35439+Q62645) pIC50 of the molecule O=C(O)CC(F)(F)C(=O)N1N=C(c2c(-c3ccc(Cl)cc3)c3ccccc3[nH]c2=O)CC1c1ccc(Cl)cc1 (stereo not drawn) equals 7.30

The value of pIC50 recorded for O=C(O)CCC(=O)N1N=C(c2c(-c3ccncc3)c3ccccc3[nH]c2=O)CC1c1ccc(Cl)cc1 (stereo not drawn) when tested on GluN2D-containing receptors (Rattus norvegicus, UniProt P35439+Q62645) reads 5.09

Value (pIC50, GluN2D-containing receptors (Rattus norvegicus, UniProt P35439+Q62645)) for record `O=C(CC(F)(F)CO)N1N=C(c2c(-c3ccc(Cl)cc3)c3ccccc3[nH]c2=O)C[C@@H]1c1ccc(Cl)cc1` = 5.44

====

# target: GluN1/GluN2D receptors (Rattus norvegicus, UniProt P35439+Q62645)
# Sequence (Q62645 28-1323, other chains not shown): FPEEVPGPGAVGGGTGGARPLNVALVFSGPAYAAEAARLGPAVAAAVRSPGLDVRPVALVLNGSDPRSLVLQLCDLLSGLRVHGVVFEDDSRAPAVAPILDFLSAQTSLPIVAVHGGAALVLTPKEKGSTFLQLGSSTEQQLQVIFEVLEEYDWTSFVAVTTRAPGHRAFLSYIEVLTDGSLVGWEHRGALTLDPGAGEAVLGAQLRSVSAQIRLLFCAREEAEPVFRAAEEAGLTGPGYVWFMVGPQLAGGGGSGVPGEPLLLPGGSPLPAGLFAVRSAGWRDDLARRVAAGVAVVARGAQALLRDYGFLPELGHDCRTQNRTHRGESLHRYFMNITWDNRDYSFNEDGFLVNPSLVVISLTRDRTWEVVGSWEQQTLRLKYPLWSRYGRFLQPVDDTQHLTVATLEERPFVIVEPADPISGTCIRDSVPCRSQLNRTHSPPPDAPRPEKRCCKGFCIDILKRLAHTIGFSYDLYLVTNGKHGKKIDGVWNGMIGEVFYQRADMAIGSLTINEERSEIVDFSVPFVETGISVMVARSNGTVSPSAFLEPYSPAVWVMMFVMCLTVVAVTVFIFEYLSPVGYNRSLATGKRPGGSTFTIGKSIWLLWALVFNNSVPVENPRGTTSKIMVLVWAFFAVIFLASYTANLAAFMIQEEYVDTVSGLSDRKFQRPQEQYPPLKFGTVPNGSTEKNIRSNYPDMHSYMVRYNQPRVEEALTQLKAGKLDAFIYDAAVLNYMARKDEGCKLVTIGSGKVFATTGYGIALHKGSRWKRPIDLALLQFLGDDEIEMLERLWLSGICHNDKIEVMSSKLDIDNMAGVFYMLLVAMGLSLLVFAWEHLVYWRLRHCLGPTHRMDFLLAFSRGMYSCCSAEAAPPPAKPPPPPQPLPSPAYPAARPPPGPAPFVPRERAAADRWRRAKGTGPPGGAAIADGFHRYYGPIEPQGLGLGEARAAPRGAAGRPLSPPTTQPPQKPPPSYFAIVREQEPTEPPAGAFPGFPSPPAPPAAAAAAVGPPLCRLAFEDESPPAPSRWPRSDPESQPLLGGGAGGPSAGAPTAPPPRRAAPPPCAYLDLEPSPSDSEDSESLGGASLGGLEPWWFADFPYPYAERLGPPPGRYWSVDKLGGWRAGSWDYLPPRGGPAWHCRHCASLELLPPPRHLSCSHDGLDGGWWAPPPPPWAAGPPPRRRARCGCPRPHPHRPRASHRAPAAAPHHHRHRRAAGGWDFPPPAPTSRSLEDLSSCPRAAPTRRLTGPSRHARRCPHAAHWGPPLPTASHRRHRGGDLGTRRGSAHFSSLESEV
# methodNotes: Whole-cell patch clamp recordings of GluN1/GluN2D receptors expressed in HEK293 cells
# Type: cell-based
# testSettings: HEK293 cells, n=4; read-out: IC50 for inhibition of the response under whole-cell voltage clamp
measuredEndpoint: pIC50
Lab note — pIC50 values are minus log10 of concentrations in M.

pIC50 for O=C(O)/C=C/C(=O)N1N=C(c2c(-c3ccc(Br)cc3)c3ccccc3[nH]c2=O)CC1c1ccc(Cl)cc1 (racemic) [Compound 997-33] is 6.00

====

I'd be grateful if you could share measured IC50 for these entries.
# target: GluN2C-containing receptors (Rattus norvegicus, UniProt P35439+Q00961)
# methodNotes: Two-electrode voltage-clamp inhibition of GluN2C-containing NMDA receptors in Xenopus laevis oocytes
# Description: IC50 values were obtained by fitting the Hill equation to the average composite concentration-effect curves. Xenopus laevis oocytes were isolated and maintained as described in Hansen & Traynelis, J Neurosci 2011, 31, 3650-3661. Oocytes were placed in a perfusion chamber with recording solution comprised of (in mM) 90 NaCl, 1 KCl, 0.5 BaCl2, 0.005 EDTA and 10 HEPES, pH adjusted to 7.4 with NaOH at 23° C. The glass electrodes used had tip resistance of 0.5-2.0 MΩ and were filled with 0.3-3.0 M KCl. […]
Hi, when you answer, please include the unit after the number. Thanks!

# IC50 (compound: O=C(O)CCC(=O)N1N=C(c2c(-c3ccncc3)c3ccccc3[nH]c2=O)CC1c1ccc(Cl)cc1 (stereo not drawn) ) is 15000 nM

Just so you know, measured IC50 for `O=C(CC(F)(F)CO)N1N=C(c2c(-c3ccc(Cl)cc3)c3ccccc3[nH]c2=O)C[C@H]1c1ccc(Cl)cc1` came out at 1400 nM

Lookup result for `O=C(CC(F)(F)CO)N1N=C(c2c(-c3ccc(Cl)cc3)c3ccccc3[nH]c2=O)C[C@@H]1c1ccc(Cl)cc1` ; measured IC50: 8500 nM

// IC50 lookup, compound = O=C(CC(F)(F)C(=O)O)N1N=C(c2c(-c3cccc(F)c3)c3ccccc3[nH]c2=O)CC1c1ccc(Cl)cc1 (stereo not drawn) , result: 600 nM

Given item O=C(O)CC(F)(F)C(=O)N1N=C(c2c(-c3ccc(Cl)cc3)c3ccccc3[nH]c2=O)CC1c1ccc(Cl)cc1 (stereo not drawn) , the value recorded as its IC50 is 390 nM

The reported value for O=C(CC(F)(F)CO)N1N=C(c2c(-c3ccc(Cl)cc3)c3ccccc3[nH]c2=O)CC1c1ccc(Cl)cc1 (stereo not drawn) in terms of IC50 is 1600 nM

====

# target: GluN2D-containing receptors (Rattus norvegicus, UniProt Q62645)
# Construct: expressed in transfected cells; host or cells: Xenopus laevis oocytes
# Sequence (Q62645 28-1323, other chains not shown): as above
# methodNotes: Two-electrode voltage-clamp inhibition of GluN2D-containing NMDA receptors in Xenopus laevis oocytes
# Format: cell-based
# testSettings: subunit inferred; GluN2D by context of b229; read-out: IC50 (potency, FIG. 10)
measuredEndpoint: IC50 (µM)
Only the number, expressed in µM, is required.

response.value for COC(=O)c1ccc(C2CC(c3c(-c4ccccc4)c4cc(Cl)ccc4[nH]c3=O)=NN2C(=O)CCC(=O)O)cc1 (stereo not shown) [Compound 997-6] (field: IC50) = 32
